target: T1, hTIM3-Fc murine FG loop (human, FG loop replaced by mouse TIM-3); experiment: ELISA, construct coated on plate
T1 construct: Whole construct: chimeric ECD, linker and human IgG1 Fc; also called hTIM3-Fc FG loop chimera
resultType: Absorbance at 450 nm (A450)
Write the answer as a number in A450, unit excluded.

binder	resultType	readoutUnit	observed
mAb22 (antibody, V domains shown, Mouse hybridoma antibody) VH: EVQLVESGGDLVKPGGSLKLSCAASGFTFSNHGMSWVRQTPDKRLEWVATISSGGSNTYFPDSVKGRFTISRDNVKNSLYLQMSSLKSEDTAMYYCARHGTSMIKEWFAYWGQGTLVTVSA VL: DIVMTQSPVTLSVTPGDRVSLSCRASQSIGDYLHWYQQKSHESPRLLIKYASQSISGIPSRFSGSGSGSDFTLNINSVEPEDVGVYYCQHSHSFPPTFGGGTRLEIK	Absorbance at 450 nm	A450	2.22
mAb48 (antibody, V domains shown, Mouse hybridoma antibody) VH: QIQLQQSGPELVTPGTSVKISCKASGYTFTDYYINWVKQRPGQGLEWIGWIYPGSGNTKYNEKFKGKATLTVDTSSSIAYMHLSSLTSEDSAVYFCAGDRFDYWGQGTTLTVSS VL: QIVLTQSPAIMSASPGEKVTLTCSASSGVSSSYLYWYQQKPGSSPKLWIYSTSNLASGVPARFSGSGSGTSYSLTISNMETEDAASYFCHQWSNSPYTFGGGTKLEIK	Absorbance at 450 nm	A450	1.53

// next entry
Q) Data request, read-out Absorbance at 450 nm, for mAb91 (antibody, V domains shown, Mouse hybridoma antibody) VH: DVQFQESGPGLVKPSQSLSLTCSVTGYSITSGYYWNWIRQFPGNKLEWMGYISYDGSNNYNPSLKNRISITRDTSKNQFFLKLNSVTTEDTATYYCGRDGPYYYGSSYGYFDVWGTGTTVTVSS VL: DIVMTQAESSVPVTPGESVSISCRSSKSLLHSNGNTYLYWFLQRPGQSPQLLIHRMSNLASGVPDRFSGSGSGTAFTLRISRVEAEDMGVYYCMQHLEYPCTFGGGTKLEIK
A) 1.74

Recorded values, source patent US20160200815A1.
